assay: Quantitative highthroughput screen to assess conditional lethalithy of SEM cells grown in Human Plasma-Like Medium with dialyzed fetal bovine serum (HPLM+ds) (AID 1963882); details: SEM B-ALL cells in HPLM+ds, CellTiter-Glo viability, 48 h; series mostly up to 45.8 µM; also: nearly all actives have a fitted effect of over 35% in size
Records with an inconclusive call do not appear. Active and inactive are the calls of the source. Calls follow the shape of the dose curve; as a rule, active = well fitted cell-killing curve with a large enough effect; inconclusive = small, poorly fitted or top-dose-only effect, or effect the other way; inactive = no such curve, though single readings can be large or run the other way.
Hi! Could you answer with just one of these? y for active, n for inactive

Input line: Identify the outcome logged in this assay for the molecule shown: COCCCOc1cc(C[C@@H](C[C@H](N)[C@@H](O)C[C@H](C(=O)NCC(C)(C)C(N)=O)C(C)C)C(C)C)ccc1OC
Output line: n

Input line: Identify the outcome logged in this assay for the molecule shown: CCCCCCCCCCCCc1ccc(S(=O)(=O)Nc2nncs2)cc1
Output line: n

Input line: Identify the outcome logged in this assay for the molecule shown: OC(Cn1cncn1)(Cn1cncn1)c1ccc(F)cc1F
Output line: n

Input line: Identify the outcome logged in this assay for the molecule shown: CCC1=C[C@@H]2CN(C1)Cc1c([nH]c3ccccc13)[C@@](C(=O)OC)(c1cc3c(cc1OC)N(C)[C@@H]1[C@@](O)(C(=O)OC)[C@H](OC(C)=O)[C@]4(CC)C=CCN5CC[C@]31[C@@H]54)C2
Output line: y

Input line: Identify the outcome logged in this assay for the molecule shown: Cc1cc(Nc2ncc(Cl)c(Nc3ccccc3S(=O)(=O)C(C)C)n2)c(OC(C)C)cc1C1CCNCC1
Output line: y

---

experiment: Viability qHTS for spleen associated tyrosine kinase inhibitor (SYKi) drug resistant MV4-11 cells (AID 1963824); settings: SYKi-resistant MV4-11 viability, CellTiter-Glo, 72 h; series mostly up to 45 µM; also: nearly all actives have a fitted effect of over 35% in size
Records with an inconclusive call do not appear. Calls of active or inactive are those of the source. The call rests on the fitted dose curve; in most records, active means well fitted cell-killing curve with a large enough effect; inconclusive means small, poorly fitted or top-dose-only effect, or effect the other way; inactive means no such curve, though single readings can be large or run the other way.
Hi! Could you answer with just one of these? active, inactive

Input line: Identify the outcome logged in this assay for the compound shown: C=C1CCC[C@]2(C)CC[C@@H](C(=C)C(=O)O)[C@H](O)[C@@H]12
Output line: inactive

Input line: Identify the outcome logged in this assay for the compound shown: Cc1c(C)n(Cc2ccc(-c3ccccc3C(=O)O)cc2)c2ccc(C(=O)N[C@@H](C)c3ccc([N+](=O)[O-])cc3)cc12
Output line: active

Input line: Identify the outcome logged in this assay for the compound shown: CC1=C(C)C(=O)OC(C(C)C2C(O)CC3C4C5OC5C5(O)CC(OC6OC(CO)C(O)C(O)C6O)CC(O)C5(C)C4CCC32C)C1 (centres undefined)
Output line: inactive

Input line: Identify the outcome logged in this assay for the compound shown: CCC/C=C/c1cc2c(C=O)c(O)c(CC=C(C)C)cc2o1
Output line: active

Input line: Identify the outcome logged in this assay for the compound shown: CCOc1ccc(-c2nc(-c3cccc4c3CCC4NCCO)no2)cc1OCC (centres undefined)
Output line: active

Input line: Identify the outcome logged in this assay for the compound shown: Cc1n[nH]c(C)c1Cc1sc2c(c1C(=O)N1C[C@H](O)CO1)c(=O)n(C)c(=O)n2CC(C)C
Output line: inactive

Input line: Identify the outcome logged in this assay for the compound shown: C[C@@H](O)[C@H]1C(=O)N2C(C(=O)O)=C(SCCN=CN)C[C@H]12
Output line: inactive

Input line: Identify the outcome logged in this assay for the compound shown: COc1cc(N2CCOCC2)ccc1NC(=O)c1csc(-c2cccnc2)n1
Output line: active

Input line: Identify the outcome logged in this assay for the compound shown: COc1cc(F)ccc1-c1ncnc(Nc2cccc(CS(C)(=N)=O)c2)n1 (centres undefined)
Output line: active

---

Exercise: state measured activity (max response) for each of the compounds provided.
experiment: Cellular viability qHTS for adrenocortical cancer (ACC) cell line SW-13 (AID 1963989); conditions: SW-13 ACC cells viability, CellTiter-Glo, 48 h; stronger effect = lower value;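 also: cells grown in serum-free medium with ITS supplement; % is scaled to controls: 0 for no effect and ±100 for the full control effect; nearly all actives have a fitted effect of over 65% in size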
Results filed as inconclusive are left out. Where a SMILES comes first, the peptide text is derived from it. [ ]: non-standard residue; d: D form. pGlu = O=C1CC[C@@H](C(=O)O)N1
Write the value in % as a bare number.

Input line: Write down activity (max response) measured for item CCN(CCCCOC(=O)c1ccc(OC)c(OC)c1)C(C)Cc1ccc(OC)cc1 (stereo not given)
Output line: -18.6

Input line: Write down activity (max response) measured for item O=C(O)c1ccccn1
Output line: 1.31

Input line: Write down activity (max response) measured for item C=C1C(=CC=C2CCC[C@]3(C)[C@@H]([C@H](C)C=C[C@H](C)C(C)C)CC[C@@H]23)C[C@@H](O)C[C@@H]1O
Output line: -0.683

Input line: Write down activity (max response) measured for item Cn1c(=O)c(-c2c(Cl)cccc2Cl)cc2cnc(Nc3cccc(C(=O)O)c3)nc21
Output line: -0.886

Input line: Write down activity (max response) measured for item Nc1ncnc2c1ncn2Cc1c(F)cccc1Cl
Output line: 6.36

Input line: Write down activity (max response) measured for item OC[C@H]1O[C@@H](Oc2cc(O)cc(/C=C/c3ccc(O)cc3)c2)[C@H](O)[C@@H](O)[C@@H]1O
Output line: 7.59

Input line: Write down activity (max response) measured for item CCN(CC)CCOC(=O)C1(c2ccccc2)CCCC1
Output line: 8.5

Input line: Write down activity (max response) measured for item OCCOCCN1CCN(C2=Nc3ccccc3Sc3ccccc32)CC1
Output line: -9.48

Input line: Write down activity (max response) measured for item C[C@@H]1COCCN1c1cc(=O)n2c(n1)N(Cc1cncc(Cl)c1)[C@H](C(F)(F)F)CC2
Output line: 2.98

Input line: Write down activity (max response) measured for item CC(C)(C)NCC(O)COc1cccc2c1C[C@H](O)[C@H](O)C2 (stereo not given in full)
Output line: 9.63

Input line: Write down activity (max response) measured for item CC(C)(F)C[C@H](N[C@@H](c1ccc(-c2ccc(S(C)(=O)=O)cc2)cc1)C(F)(F)F)C(=O)NC1(C#N)CC1
Output line: -2.64

Input line: Write down activity (max response) measured for item CS(=O)(=O)OCCCCOS(C)(=O)=O
Output line: 4.16

Input line: Write down activity (max response) measured for item Cc1ccc(C(=O)c2ccc(CC(=O)O)n2C)cc1
Output line: 4.18

Input line: Write down activity (max response) measured for item O=C(CO)[C@@H](O)[C@H](O)[C@@H](O)CO
Output line: 0.0107

Input line: Write down activity (max response) measured for item NCC(=O)CCC(=O)O
Output line: 16.5

Input line: Write down activity (max response) measured for item CCNC(=O)[C@@H]1CCCN1C(=O)[C@H](CCCN=C(N)N)NC(=O)[C@H](CC(C)C)NC(=O)CNC(=O)[C@H](Cc1ccc(O)cc1)NC(=O)[C@H](CO)NC(=O)[C@H](Cc1c[nH]c2ccccc12)NC(=O)[C@H](Cc1cnc[nH]1)NC(=O)[C@@H]1CCC(=O)N1 ([pGlu]HWSYGLRP-NHEt)
Output line: 7.58

Input line: Write down activity (max response) measured for item CCCCCCCCCCCCCCCCCCCCCCO
Output line: -13.9

Input line: Write down activity (max response) measured for item O=C(OCC(COC(=O)c1cccnc1)(COC(=O)c1cccnc1)COC(=O)c1cccnc1)c1cccnc1
Output line: -1.24

Input line: Write down activity (max response) measured for item Cc1cc2c(cc1S(N)(=O)=O)S(=O)(=O)CCC2
Output line: 12.2

Input line: Write down activity (max response) measured for item C[C@](N)(Cc1ccc(O)cc1)C(=O)O
Output line: -6.01
